Recorded values, source patent US4002623A.

test: adjuvant arthritis screen (Walz et al.), swelling of the non-injected left hind foot on Day 16; format: in vivo, male inbred Lewis rats; conditions: Rattus norvegicus, 384 h, 10 mg./kg. po, daily day -1 through day 15, read-out: Activity Percent Inhibition
outcome_measure: inhibition in vivo at 10 mg/kg (%)
Please reply with the bare figure in % and do not write the unit itself.

In [3]: df
Out[3]:
                                   compound                 outcome_measure  test_result
0   COc1ccc(C(=O)Nc2nc3ccccc3n2CCCN(C)C)cc1  inhibition in vivo at 10 mg/kg           12
1  Cc1ccc2nc(NC(=O)c3cccc(Cl)c3)n(CCCN3CCN(C)CC3)c2c1 [3-Chlorophenyl; H; CH3; drawing 24]  inhibition in vivo at 10 mg/kg           -5

Memo: CN1CCN(CCCn2c(NC(=O)c3ccc(Cl)c(Cl)c3)nc3ccccc32)CC1 [3,4-Dichlorophenyl; H; H; drawing 24] , reported inhibition in vivo at 10 mg/kg: 32

Memo: COc1ccc2c(c1)nc(NC(=O)c1cccc(C(F)(F)F)c1)n2CCCN1CCN(C)CC1 [3-Trifluoromethylphenyl; OCH3; H; drawing 24] , reported inhibition in vivo at 10 mg/kg: -5

---

experiment: adjuvant arthritis screen (Walz et al.), swelling of the non-injected left hind foot on Day 16; assay type: in vivo, male inbred Lewis rats; details: Rattus norvegicus, 384 h, 20 mg./kg. po, daily day -1 through day 15, read-out: Activity Percent Inhibition
outcome_measure: inhibition in vivo at 20 mg/kg (%)
Please reply with the bare figure in % and do not write the unit itself.

A selection of reference data follows.
>>> df
                                   molecule  unit_of_measurement  test_result
0  Cc1cc2nc(NC(=O)c3ccc(Cl)cc3)n(CCCN3CCN(C)CC3)c2cc1C [4-Chlorophenyl; CH3; CH3; drawing 24]                    %           30
1  COc1ccc(C(=O)Nc2nc3cc(S(=O)(=O)N(C)C)ccc3n2CCCN2CCN(C)CC2)cc1 [4-Methoxyphenyl; SO2 N(CH3)2; H; drawing 24]                    %           27
2  Cc1cc2nc(NC(=O)c3ccc(C(F)(F)F)cc3)n(CCCN3CCN(C)CC3)c2cc1C                    %           29

Memo: Cc1ccc2nc(NC(=O)c3ccc(Cl)c(Cl)c3)n(CCCN3CCN(C)CC3)c2c1 [3,4-Dichlorophenyl; H; CH3; drawing 24] , reported inhibition in vivo at 20 mg/kg: 22

---

assay: adjuvant arthritis screen (Walz et al.), swelling of the non-injected left hind foot on Day 16; assay type: in vivo, male inbred Lewis rats; details: Rattus norvegicus, 384 h, 10 mg./kg. po, daily day -1 through day 15, read-out: Activity Percent Inhibition
outcome_measure: inhibition in vivo at 10 mg/kg (%)
Please reply with the bare figure in % and do not write the unit itself.

>>> df
                                   compound                 outcome_measure  test_result
0  CN1CCN(CCCn2c(NC(=O)c3ccc(Cl)cc3)nc3cc(Cl)ccc32)CC1 [4-Chlorophenyl; Cl; H; drawing 24]  inhibition in vivo at 10 mg/kg          -10
1  CN(C)CCCn1c(NC(=O)c2ccc(Cl)c(Cl)c2)nc2ccccc21 [3,4-Dichlorophenyl; H; H; Z = N(CH3)2]  inhibition in vivo at 10 mg/kg           13
2  CN1CCN(CCCn2c(NC(=O)c3ccc(C(F)(F)F)cc3)nc3cc(Cl)ccc32)CC1 [4-Trifluoromethylphenyl; Cl; H; drawing 24]  inhibition in vivo at 10 mg/kg           38
3  CN1CCN(CCCn2c(NC(=O)c3cccc(C(F)(F)F)c3)nc3cc(Cl)ccc32)CC1 [3-Trifluoromethylphenyl; Cl; H; drawing 24]  inhibition in vivo at 10 mg/kg           16
4  O=C(Nc1nc2ccccc2n1CCCN1CCNCC1)c1cccc(C(F)(F)F)c1 [3-Trifluoromethylphenyl; H; H; drawing 28]  inhibition in vivo at 10 mg/kg           13

Memo: COc1ccc2c(c1)nc(NC(=O)c1cccc(Cl)c1)n2CCCN1CCN(C)CC1 [3-Chlorophenyl; OCH3; H; drawing 24] , reported inhibition in vivo at 10 mg/kg: -1

Memo: CN1CCN(CCCn2c(NC(=O)c3cccc(Cl)c3)nc3cc(S(=O)(=O)N(C)C)ccc32)CC1 [3-Chlorophenyl; SO2 N(CH3)2; H; drawing 24] , reported inhibition in vivo at 10 mg/kg: 35

Memo: CN1CCN(CCCn2c(NC(=O)c3cccc(Cl)c3)nc3cc(Cl)ccc32)CC1 [3-Chlorophenyl; Cl; H; drawing 24] , reported inhibition in vivo at 10 mg/kg: -5

Memo: COc1ccc2c(c1)nc(NC(=O)c1ccc(Cl)c(Cl)c1)n2CCCN1CCN(C)CC1 [3,4-Dichlorophenyl; OCH3; H; drawing 24] , reported inhibition in vivo at 10 mg/kg: 35
